Target under test: UniProtKB P14902
Sequence (P14902 whole entry): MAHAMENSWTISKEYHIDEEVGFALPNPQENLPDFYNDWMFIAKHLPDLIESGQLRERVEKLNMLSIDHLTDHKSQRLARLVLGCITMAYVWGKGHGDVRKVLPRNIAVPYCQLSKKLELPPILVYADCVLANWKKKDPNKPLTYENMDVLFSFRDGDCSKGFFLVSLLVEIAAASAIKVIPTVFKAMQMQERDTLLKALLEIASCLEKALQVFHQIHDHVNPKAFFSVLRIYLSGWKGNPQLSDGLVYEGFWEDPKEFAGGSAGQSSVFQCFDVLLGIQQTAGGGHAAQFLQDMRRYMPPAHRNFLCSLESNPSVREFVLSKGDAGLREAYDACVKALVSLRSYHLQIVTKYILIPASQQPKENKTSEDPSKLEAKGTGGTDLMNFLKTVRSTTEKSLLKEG
Method notes: Assessment of human IDO-1 inhibitory activity in Hela cells (Interferon-gamma stimulated HeLa cells, Ehrlich reagent, absorbance 490 nm)
Format: cell-based
Design: endogenous in cells; host or cells: HeLa cells stimulated with interferon-gamma
Settings: Hela Human IDO-1 cellular assay
Measured endpoint: IC50

[[record]]
molecule = "C[C@@H]1CN(c2ccc(C(CC(=O)O)C3CC3)cc2Nc2ccc(C#N)cc2)C[C@H](C)O1 (single isomer, unassigned) [Example 243]"
measured_endpoint = "IC50"
recorded_value = "< 50 nM"

[[record]]
molecule = "CCN(c1ccc([C@@H](COC)CC(=O)O)cc1Nc1ccc(S(=O)(=O)CC)cc1)C1CCOCC1 (single isomer, unassigned)"
measured_endpoint = "IC50"
recorded_value = "> 50 nM"

[[record]]
molecule = "CCN(c1ccc(C(CC(=O)O)C2CC2)cc1NC(=O)Nc1ccc(C)cc1)C1CCOCC1 (single isomer, unassigned) [Example 40 Enantiomer 2]"
measured_endpoint = "IC50"
recorded_value = "< 50 nM"

[[record]]
molecule = "CCOc1ncc(Nc2cc(C(CC)CC(=O)O)cnc2N(CC(C)C)CC(C)C)cn1 (racemic)"
measured_endpoint = "IC50"
recorded_value = "< 5 nM"

[[record]]
molecule = "CCCN(c1ccc([C@H](COC)CC(=O)O)cc1Nc1cnc(OCC2CC2)nc1)C1CCOCC1 (single isomer, unassigned)"
measured_endpoint = "IC50"
recorded_value = "< 50 nM"

[[record]]
molecule = "CCOc1ncc(Nc2cc([C@H](CC(=O)O)C(F)(F)F)ccc2N(CC)C2CCOCC2)cn1"
measured_endpoint = "IC50"
recorded_value = "< 50 nM"

